molecular target: T1, human GPC3 (human, UniProt P51654 25-563); assay: SPR
T1 construct: range 25-563; soluble analyte; also called soluble human GPC3; glypican 3
T1 sequence (P51654 25-563 limits assumed): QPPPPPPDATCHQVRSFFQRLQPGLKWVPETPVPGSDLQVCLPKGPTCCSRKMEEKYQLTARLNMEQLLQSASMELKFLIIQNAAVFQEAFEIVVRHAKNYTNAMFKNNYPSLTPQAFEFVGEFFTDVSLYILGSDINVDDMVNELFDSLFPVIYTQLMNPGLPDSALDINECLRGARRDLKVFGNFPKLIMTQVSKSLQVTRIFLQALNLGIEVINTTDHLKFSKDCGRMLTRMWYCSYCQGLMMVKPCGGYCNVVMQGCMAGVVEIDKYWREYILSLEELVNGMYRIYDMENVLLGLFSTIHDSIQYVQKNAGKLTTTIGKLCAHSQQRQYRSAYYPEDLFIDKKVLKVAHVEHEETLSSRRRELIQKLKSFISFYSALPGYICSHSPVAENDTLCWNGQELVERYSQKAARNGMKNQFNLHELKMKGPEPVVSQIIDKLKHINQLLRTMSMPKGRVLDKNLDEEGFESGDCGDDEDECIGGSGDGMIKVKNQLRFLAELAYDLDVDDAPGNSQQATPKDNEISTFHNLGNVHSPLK
pKd: −log10 of the molar value.

{"BINDER": "GCH060-G1dh/none-Hi-Kn010G3/L0200-k0 (antibody, V domains shown, one-arm) VH: QVQLVQSGAEVKKPGASVTVSCKASGYTFEDYEMHWIRQPPGEGLEWIGAIDGETPDTAYSQKFEGRVTLTADKSTSTAYMELSSLTEEDTAVYYCTRFYSYTYWGQGTLVTVSS VL: DIVMTQSPLSLPVTPGEPASISCRPSQSPVHSNRNTYLHWYQQKPGQAPRLLIYKVSNRFSGVPDRFSGSGSGTDFTLKISRVEAEDVGVYYCGQGTQVPYTFGQGTKLEIK", "pKd": 8.87}
{"BINDER": "GCH025-G1dh/none-Hi-Kn010G3/L0204-k0 (antibody, V domains shown, one-arm) VH: QVQLVQSGAEVKKPGASVTVSCKASGYTFTDYEMHWIRQPPGEGLEWIGAIDGETPDTAYSQKFKGRVTLTADKSTSTAYMELSSLTSEDTAVYYCTRFYSYTYWGQGTLVTVSS VL: DIVMTQSPLSLPVTPGEPASISCRSSQSPVHSNRNTYLHWYQQKPGQAPRLLIYKVSNRFRGVPDRFSGSGSGTDFTLKISRVEAEDVGVYYCGQGTQVPYTFGQGTKLEIKR", "pKd": 9.17}
{"BINDER": "GCH056-G1dh/none-Hi-Kn010G3/L0000-k0 (antibody, V domains shown, one-arm) VH: QVQLVQSGAEVKKPGASVTVSCKASGYTFTDYEMHWIRQPPGEGLEWIGAIDGETPDTAYSQKFEGRVTLTADKSTSTAYMELSSLTSEDTAVYYCTRFYSYTYWGQGTLVTVSS VL: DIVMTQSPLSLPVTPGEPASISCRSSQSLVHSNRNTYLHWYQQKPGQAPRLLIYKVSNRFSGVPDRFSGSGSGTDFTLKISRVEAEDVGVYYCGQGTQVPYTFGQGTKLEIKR", "pKd": 8.30}
